Data origin, for the record: ChEMBL document CHEMBL1134320

Answer each item with its documented IC50.
Biological target: Tyrosine-protein phosphatase non-receptor type 6 (Homo sapiens, UniProt P29350)
Sequence (P29350 whole entry): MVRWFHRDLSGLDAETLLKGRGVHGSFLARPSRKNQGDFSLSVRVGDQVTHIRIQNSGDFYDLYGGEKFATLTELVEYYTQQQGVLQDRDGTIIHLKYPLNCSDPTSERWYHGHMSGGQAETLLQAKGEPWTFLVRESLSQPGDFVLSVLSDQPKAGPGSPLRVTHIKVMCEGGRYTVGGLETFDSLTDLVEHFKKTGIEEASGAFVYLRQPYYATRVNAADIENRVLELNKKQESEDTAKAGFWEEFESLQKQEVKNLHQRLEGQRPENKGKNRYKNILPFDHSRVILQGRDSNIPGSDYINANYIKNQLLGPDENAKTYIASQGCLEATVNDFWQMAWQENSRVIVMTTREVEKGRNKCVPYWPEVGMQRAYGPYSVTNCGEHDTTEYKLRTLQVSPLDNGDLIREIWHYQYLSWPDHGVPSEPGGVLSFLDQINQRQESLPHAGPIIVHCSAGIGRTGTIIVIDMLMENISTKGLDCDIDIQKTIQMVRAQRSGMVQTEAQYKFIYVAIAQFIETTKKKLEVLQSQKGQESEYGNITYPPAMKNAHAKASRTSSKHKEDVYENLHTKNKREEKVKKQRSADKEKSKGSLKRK
Give bare numbers, in µM.

Examples with answers:
[
  {
    "Molecular String": "O=P(O)(O)C(F)(F)c1ccc(COc2cccc(OCc3ccc(C(F)(F)P(=O)(O)O)cc3)c2)cc1",
    "IC50, µM": 16
  },
  {
    "Molecular String": "O=P(O)(O)C(F)(F)c1ccc(COc2ccc(OCc3ccc(C(F)(F)P(=O)(O)O)cc3)cc2)cc1",
    "IC50, µM": 6.3
  },
  {
    "Molecular String": "O=P(O)(O)C(F)(F)c1ccc(COc2ccccc2OCc2ccc(C(F)(F)P(=O)(O)O)cc2)cc1",
    "IC50, µM": 15
  }
]

[Q] Query IC50 for O=P(O)(O)C(F)(F)c1ccc(CCCCc2ccc(C(F)(F)P(=O)(O)O)cc2)cc1
[A] 31

====

Biological target: Tyrosine-protein phosphatase non-receptor type 11 (Homo sapiens)
Sequence (Q06124 whole entry): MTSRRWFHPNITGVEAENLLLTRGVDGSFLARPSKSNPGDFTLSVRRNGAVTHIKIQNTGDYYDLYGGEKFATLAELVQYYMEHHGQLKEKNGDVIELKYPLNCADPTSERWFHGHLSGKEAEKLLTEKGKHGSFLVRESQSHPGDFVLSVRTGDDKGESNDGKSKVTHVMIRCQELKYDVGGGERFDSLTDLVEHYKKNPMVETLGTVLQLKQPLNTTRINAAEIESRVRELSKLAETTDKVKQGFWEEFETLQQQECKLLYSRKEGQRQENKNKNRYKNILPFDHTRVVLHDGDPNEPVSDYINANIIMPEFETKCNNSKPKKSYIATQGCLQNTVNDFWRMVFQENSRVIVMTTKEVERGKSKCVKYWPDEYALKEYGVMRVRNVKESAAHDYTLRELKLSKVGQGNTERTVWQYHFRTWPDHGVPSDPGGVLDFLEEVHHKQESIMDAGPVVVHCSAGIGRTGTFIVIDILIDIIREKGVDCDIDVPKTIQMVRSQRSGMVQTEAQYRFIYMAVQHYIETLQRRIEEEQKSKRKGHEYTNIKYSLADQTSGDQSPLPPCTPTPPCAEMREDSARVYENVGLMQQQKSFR
Measurement Kind: IC50 (µM)
Give bare numbers, in µM.

[Q] Please report IC50 with Tyrosine-protein phosphatase non-receptor type 11 (Homo sapiens) for item O=P(O)(O)C(F)(F)c1ccc(COCCOCc2ccc(C(F)(F)P(=O)(O)O)cc2)cc1 .
[A] 152

====

Molecular target: Tyrosine-protein phosphatase non-receptor type 2 (Homo sapiens)
Sequence (P17706 whole entry): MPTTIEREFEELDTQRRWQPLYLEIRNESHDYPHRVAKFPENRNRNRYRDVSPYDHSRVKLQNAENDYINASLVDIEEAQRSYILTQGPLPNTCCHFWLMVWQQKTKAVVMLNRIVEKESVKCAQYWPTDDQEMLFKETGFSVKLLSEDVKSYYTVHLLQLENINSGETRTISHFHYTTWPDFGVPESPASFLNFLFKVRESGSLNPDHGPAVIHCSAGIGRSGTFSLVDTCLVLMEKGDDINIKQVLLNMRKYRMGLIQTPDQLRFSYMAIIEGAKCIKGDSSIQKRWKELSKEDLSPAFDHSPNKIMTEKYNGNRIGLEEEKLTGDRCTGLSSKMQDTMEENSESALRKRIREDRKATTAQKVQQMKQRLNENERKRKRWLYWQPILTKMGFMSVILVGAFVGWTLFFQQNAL
Values of IC50 strictly less than 5 µM map to Satisfied, and values of at least 5 µM map to Not satisfied.

Worked examples, 4 molecules total:
[
  {
    "Molecular String": "O=P(O)(O)C(F)(F)c1ccc(COc2ccccc2OCc2ccc(C(F)(F)P(=O)(O)O)cc2)cc1",
    "Class Label": "Satisfied"
  },
  {
    "Molecular String": "O=P(O)(O)C(F)(F)c1ccc(COCCOCc2ccc(C(F)(F)P(=O)(O)O)cc2)cc1",
    "Class Label": "Not satisfied"
  },
  {
    "Molecular String": "O=P(O)(O)C(F)(F)c1ccc(COc2cccc(OCc3ccc(C(F)(F)P(=O)(O)O)cc3)c2)cc1",
    "Class Label": "Not satisfied"
  },
  {
    "Molecular String": "O=P(O)(O)C(F)(F)c1ccc(CCCCc2ccc(C(F)(F)P(=O)(O)O)cc2)cc1",
    "Class Label": "Not satisfied"
  }
]

[Q] For this molecule, is IC50 lower than 5 µM? O=P(O)(O)C(F)(F)c1ccc(COc2ccc(OCc3ccc(C(F)(F)P(=O)(O)O)cc3)cc2)cc1
[A] Satisfied

====

Sequence of the target: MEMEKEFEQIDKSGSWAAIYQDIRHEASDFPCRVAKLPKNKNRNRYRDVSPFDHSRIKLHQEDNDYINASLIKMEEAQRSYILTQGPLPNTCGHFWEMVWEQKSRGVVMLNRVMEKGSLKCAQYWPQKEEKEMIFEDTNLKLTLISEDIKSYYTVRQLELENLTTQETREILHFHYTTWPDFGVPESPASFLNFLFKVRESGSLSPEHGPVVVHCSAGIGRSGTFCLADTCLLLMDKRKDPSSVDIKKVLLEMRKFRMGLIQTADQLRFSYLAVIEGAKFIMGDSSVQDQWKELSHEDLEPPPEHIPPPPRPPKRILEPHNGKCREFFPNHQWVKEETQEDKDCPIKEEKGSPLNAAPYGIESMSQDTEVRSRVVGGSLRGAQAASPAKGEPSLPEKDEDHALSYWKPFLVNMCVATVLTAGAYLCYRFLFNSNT
Measurement Kind: pIC50
Numbers only, as −log10 of the molar value.

[
  {
    "Molecular String": "O=P(O)(O)C(F)(F)c1ccc(COc2ccccc2OCc2ccc(C(F)(F)P(=O)(O)O)cc2)cc1",
    "pIC50": 5.77
  }
]

Okay, next one:
[Q] Query pIC50 for O=P(O)(O)C(F)(F)c1ccc(COc2cccc(OCc3ccc(C(F)(F)P(=O)(O)O)cc3)c2)cc1
[A] 5.28
